target: Spermidine synthase (Rattus norvegicus) (UniProt Q99MI5); test: Inhibition of spermidine synthase at 25 uM concentration of the compound; values are per cent of control
Sequence (Q99MI5 as listed by the source): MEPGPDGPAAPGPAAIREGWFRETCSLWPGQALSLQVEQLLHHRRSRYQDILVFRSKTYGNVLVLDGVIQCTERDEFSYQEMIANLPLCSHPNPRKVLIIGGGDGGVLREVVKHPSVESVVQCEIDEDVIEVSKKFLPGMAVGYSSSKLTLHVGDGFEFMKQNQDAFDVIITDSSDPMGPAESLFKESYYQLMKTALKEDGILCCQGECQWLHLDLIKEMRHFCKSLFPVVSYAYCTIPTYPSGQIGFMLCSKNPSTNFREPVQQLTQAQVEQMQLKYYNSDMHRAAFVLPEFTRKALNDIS
residual activity values for the compounds below.
Field: numeric (%). Do not append units.

Examples with their reported residual activity follow.
> print(dat)
                                   compound  unit.abbrev  recorded.number
1  CCCCCC(CC)SC[C@H]1OC(n2cnc3c(N)ncnc32)[C@H](O)[C@@H]1O (some centres undefined)            %              102
2  C[S+](C[C@H]1O[C@H](n2cnc3c(N)ncnc32)[C@H](O)[C@@H]1O)C(CCN)CCCCCN (some centres undefined)            %               31
3  NCCCCCC(CCN)SC[C@H]1O[C@@H](n2cnc3c(N)ncnc32)[C@H](O)[C@@H]1O (some centres undefined)            %                3

Record for CCCCCC(CC)[S+](C)C[C@H]1O[C@H](n2cnc3c(N)ncnc32)[C@H](O)[C@@H]1O (some centres undefined) under target or system Spermidine synthase (Rattus norvegicus) (UniProt Q99MI5): residual activity reported as 99
